System: Penicillium digitatum
Experiment: Fungicidal activity against Penicillium digitatum assessed as fungal inhibitory rate at 16 ug/ml relative to control
Assay type: functional
Measured parameter: inhibition at 16 µg/mL (%)
Just the number please, in %, no unit attached.

Give the observed inhibition at 16 µg/mL of Cc1ccc(/C=C2\CN(C(=O)c3ccco3)CC3=C2OC(N)=C(C#N)C3c2ccc(C)s2)s1 (stereo not given) for Penicillium digitatum.
28.5

Give the observed inhibition at 16 µg/mL of COC(=O)C1=C(N)OC2=C(CN(C(=O)c3cccs3)C/C2=C\c2cccs2)C1c1cccs1 (stereo not given) for Penicillium digitatum.
33.8

Give the observed inhibition at 16 µg/mL of N#CC1=C(N)OC2=C(CN(C(=O)c3ccco3)C/C2=C\c2ccco2)C1c1ccco1 (stereo not given) for Penicillium digitatum.
58.2

Give the observed inhibition at 16 µg/mL of COC(=O)C1=C(N)OC2=C(CN(C)C/C2=C\c2ccco2)C1c1ccco1 (stereo not given) for Penicillium digitatum.
60.9

Give the observed inhibition at 16 µg/mL of N#CC1=C(N)OC2=C(CN(C(=O)c3cccs3)C/C2=C\c2ccc(Br)s2)C1c1ccc(Br)s1 (stereo not given) for Penicillium digitatum.
42.2

This collection of values is drawn from ChEMBL document CHEMBL5506031.
